Molecular target: recombinant human VEGFR2 enzyme (Homo sapiens (Human), UniProt P35968)
Sequence (P35968 20-1356): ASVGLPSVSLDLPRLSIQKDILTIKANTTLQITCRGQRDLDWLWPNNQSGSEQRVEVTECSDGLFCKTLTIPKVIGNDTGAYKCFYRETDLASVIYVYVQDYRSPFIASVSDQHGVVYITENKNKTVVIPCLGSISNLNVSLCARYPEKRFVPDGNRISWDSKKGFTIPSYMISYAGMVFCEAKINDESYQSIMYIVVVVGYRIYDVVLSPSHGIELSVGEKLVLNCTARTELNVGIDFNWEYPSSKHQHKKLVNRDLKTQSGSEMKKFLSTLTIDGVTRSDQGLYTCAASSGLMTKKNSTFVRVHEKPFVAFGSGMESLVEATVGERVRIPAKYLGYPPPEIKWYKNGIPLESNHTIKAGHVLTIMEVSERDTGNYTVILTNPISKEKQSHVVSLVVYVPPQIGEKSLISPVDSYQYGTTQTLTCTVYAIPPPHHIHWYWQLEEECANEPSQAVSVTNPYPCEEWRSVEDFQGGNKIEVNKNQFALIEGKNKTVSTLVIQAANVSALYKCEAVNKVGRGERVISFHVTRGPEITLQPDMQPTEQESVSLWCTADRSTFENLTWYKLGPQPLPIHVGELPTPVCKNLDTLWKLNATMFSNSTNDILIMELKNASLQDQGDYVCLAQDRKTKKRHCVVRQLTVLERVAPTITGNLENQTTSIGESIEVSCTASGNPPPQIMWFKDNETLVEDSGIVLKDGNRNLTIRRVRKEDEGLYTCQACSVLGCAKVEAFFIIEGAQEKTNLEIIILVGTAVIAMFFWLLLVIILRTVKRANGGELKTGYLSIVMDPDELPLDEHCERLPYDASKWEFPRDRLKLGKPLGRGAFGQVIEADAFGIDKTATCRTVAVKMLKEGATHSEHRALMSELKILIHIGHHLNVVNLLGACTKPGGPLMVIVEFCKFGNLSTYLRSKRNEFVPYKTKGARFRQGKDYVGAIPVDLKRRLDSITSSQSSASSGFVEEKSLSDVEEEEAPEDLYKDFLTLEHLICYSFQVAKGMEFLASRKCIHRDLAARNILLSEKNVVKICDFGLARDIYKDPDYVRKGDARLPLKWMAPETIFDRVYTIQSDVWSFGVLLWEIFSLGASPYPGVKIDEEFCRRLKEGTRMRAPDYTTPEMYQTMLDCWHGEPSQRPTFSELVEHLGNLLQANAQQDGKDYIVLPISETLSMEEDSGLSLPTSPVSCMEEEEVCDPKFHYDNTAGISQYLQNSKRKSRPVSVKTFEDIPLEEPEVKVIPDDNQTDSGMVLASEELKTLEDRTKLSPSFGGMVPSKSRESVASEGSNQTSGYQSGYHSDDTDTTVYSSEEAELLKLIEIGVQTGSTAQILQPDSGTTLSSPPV
Assay: Inhibition of VEGFR2 kinase activity (Z'-LYTE Kinase Assay Kit)
Conditions: ATP 50 μM; read-out: IC50 of inhibition effect on VEGFR2 kinase activity
Parameter IC50: see the listing below.
Please answer in the form of a number followed by its unit of measurement.

Briefly, IC50 measured for Cc1cccc(-c2nc3n(c2-c2ccc4nccc(C(N)=O)c4c2)[C@H]2CC[C@@H]3C2)n1 [Example 1-1] : 3050 nM

New cases:
The reported value for Cc1cccc(-c2nc3n(c2-c2ccnc(-c4ccc(S(C)(=O)=O)cc4)c2)[C@H]2CC[C@@H]3C2)n1 [Example 3-1] in terms of IC50 is 2890 nM

Entry CS(=O)(=O)c1ccc(-c2cc(-c3c(-c4ccc(F)cn4)nc4n3[C@H]3CC[C@@H]4C3)ccn2)cc1 [Example 42-1] , IC50 reported as 9740 nM

Consider Cc1cccc(-c2nc3n(c2-c2ccnc(-c4ccc(S(C)(=O)=O)cc4)c2)[C@@H]2CC[C@H]3C2)n1 [Example 3-2] . Its measured IC50 is 928 nM

====

Each item that follows carries a reported pIC50.
Test system: Smad signaling pathway of TGFβRI
Assay: Inhibition of Smad signaling pathway of TGFβRI (3TP-lux luciferase reporter in HepG2 cell)
Assay type: cell-based
Conditions: Homo sapiens, HepG2, 18 h, read-out: IC50 on the inhibition of Smad signaling pathway of TGFβRI
// scale note: pIC50 = -log10(conc_M); give the bare number

These solved cases illustrate the format of a correct answer.
Per the records, this compound ( Cc1cccc(-c2nc3n(c2-c2ccnc(-c4cnn(S(C)(=O)=O)c4)c2)C2CCC3C2)n1 (stereo not shown) ) has pIC50 equal to 7.96

So for Cc1cccc(-c2nc3n(c2-c2ccnc(Nc4ccc(S(N)(=O)=O)cc4)c2)C2CCC3C2)n1 (stereo not shown) , the logged pIC50 turned out to be 7.09

Cc1cccc(-c2nc3n(c2-c2ccnc(N)c2)C2CCC3C2)n1 (stereo not shown) has a reported pIC50 of 8.10

---
Noted for "Cc1cccc(-c2nc3n(c2-c2ccnc(NCCO)c2)[C@H]2CC[C@@H]3C2)n1" : its pIC50 reads 7.12

====

Tested on: Smad signaling pathway of TGFβRI
Assay: Inhibition of Smad signaling pathway of TGFβRI (3TP-lux luciferase reporter in HepG2 cell)
Format: cell-based
Settings: Homo sapiens; HepG2 cell, 3TP-lux plasmid, 18 hours; read-out: IC50 on the inhibition of Smad signaling pathway of TGFβRI
Experimental: The inhibition effect of the compounds of the present invention on Smad signaling pathway of TGFβRI was determined by the following in vitro test. The inhibition effect of the compounds of the present invention on Smad signaling pathway of TGFβRI was determined by the following experimental method: The seeding density is 2.5×10^4 cells/well. The cells were incubated overnight at 37° C., 5% CO2. […] The chemiluminescence signal values were measured with a Victor 3.0 (PerkinElmer). […]
Each item that follows carries a reported pIC50.
Reminder that pIC50 means the negative base-10 logarithm of the concentration expressed in mol/L.

In the examples that follow, each entry is paired with its recorded pIC50.
GET /value?item= "Cc1cccc(-c2nc3n(c2-c2ccnc(-c4ccc(S(N)(=O)=O)cc4)c2)[C@H]2CC[C@@H]3C2)n1" &field=pIC50 returns 7.43

Measured pIC50, Cc1cccc(-c2nc3n(c2-c2ccnc(NCCO)c2)C2CCC3C2)n1 (stereo not drawn) : 7.41

pIC50 reading for "Cc1cccc(-c2nc3n(c2-c2ccc4nnc(C(N)=O)n4c2)[C@@H]2CC[C@H]3C2)n1" : 7.44

Entry Cc1cccc(-c2nc3n(c2-c2ccc(=O)n(C)c2)C2CCC3C2)n1 (stereo not drawn) — recorded pIC50 = 7.28

pIC50 reading for Cc1cccc(-c2nc3n(c2-c2ccc4nccnc4c2)C2CCC3C2)n1 (stereo not drawn) : 7.68

More entries:
Looking up "Cc1cccc(-c2nc3n(c2-c2ccc4nnc(C(N)=O)n4c2)[C@H]2CC[C@@H]3C2)n1" , I found its pIC50 recorded as 7.68
